# Substrate: F protein of respiratory syncytial virus (RSV-Long strain), on infectious virus (respiratory syncytial virus (RSV-Long strain)) (UniProt P12568)
# Sequence (P12568 26-574): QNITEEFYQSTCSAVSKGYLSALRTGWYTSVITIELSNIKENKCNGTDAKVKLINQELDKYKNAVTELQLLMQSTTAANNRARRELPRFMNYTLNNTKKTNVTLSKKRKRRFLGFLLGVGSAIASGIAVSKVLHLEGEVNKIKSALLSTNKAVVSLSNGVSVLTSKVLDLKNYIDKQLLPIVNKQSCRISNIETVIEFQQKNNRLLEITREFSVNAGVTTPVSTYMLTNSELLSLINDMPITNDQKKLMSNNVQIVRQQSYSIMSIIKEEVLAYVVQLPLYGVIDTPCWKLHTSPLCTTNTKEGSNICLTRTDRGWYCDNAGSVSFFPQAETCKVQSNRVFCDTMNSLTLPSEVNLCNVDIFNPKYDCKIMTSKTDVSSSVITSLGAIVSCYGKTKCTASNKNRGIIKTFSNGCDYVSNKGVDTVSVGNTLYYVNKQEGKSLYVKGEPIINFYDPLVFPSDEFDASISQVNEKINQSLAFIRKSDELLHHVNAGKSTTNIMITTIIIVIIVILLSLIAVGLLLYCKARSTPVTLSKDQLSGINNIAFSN
# protocol notes: cell-based or functional assay
experimental readout: Mean IC50 (Control) µg/ml, RSV microneutralization (µg/mL)
Entry rule: numbers only, all in µg/mL.

Lab note: measured Mean IC50 (Control) µg/ml, RSV microneutralization of Clone 26 (IgG) (antibody, V domains shown) VH: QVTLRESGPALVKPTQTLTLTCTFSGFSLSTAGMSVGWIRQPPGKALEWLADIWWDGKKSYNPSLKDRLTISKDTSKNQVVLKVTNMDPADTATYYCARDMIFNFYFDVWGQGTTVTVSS VL: DIQMTQSPSTLSASVGDRVTITCSLSSRVGYMHWYQQKPGKAPKLLIYDTMYQSSGVPSRFSGSGSGTEFTLTISSLQPDDFATYYCFQGSGYPFTFGGGTKVEIKR was 0.0375
